# Protocol text: folding stability dG unfold (combined trypsin and chymotrypsin); higher = more stable

| Sequence content | Measurement units | Limit sign | folding stability dG unfold |
| --- | --- | --- | --- |
| SAGGSAPPPKMKRIELKVEDPEHGYEVRVEVMIYPNDSISIQYESPNGKPLPKERAQKLLKELGIESAGGSA [r15_872_TrROS] | kcal/mol | < | -1 |
| SAMEYTLEFDNLKGLTADEIEKAFRDEGYPDVKINGIRRNPDDWTITVHYGPGMPPNRVQNAIRKAIQESAG [r14_657_TrROS] | kcal/mol | = | 1.62 |
| SAGGSAGGSAGMLLLTFPERGISYEIKLGDKEEEREADPEEVEKLIAELPNYEVKEVELLSAGGSAGGSAGG [r11_57_JUSTAS] | kcal/mol | = | 0.288 |
| SAGGGMSLTTTTLTFSIDEVDPEELYEELSKKGVTVYSGGKPSNPEEGMEALLKAHPNSSYTVLTRLSAGGS [r8_38_JUSTAS] | kcal/mol | < | -1 |
| SAGGSAGGMVLVLRFPLGEPALIALYDPETGEVHVYDPGTRELLGTFPLPIEDFLELGAEAEPVSAGGSAGG [r6_831_TrMRF] | kcal/mol | = | 1.84 |
| STLLEEAKAQAEAYLKAAGLELAPGDVVTLTVPYPGPLTLEITVHPGEKKLEITATDASTPTTHTLTFDESA [r9_426_JUSTAS] | kcal/mol | = | 1.03 |
| SAGDQTITIKIPNAPPGSRVQIMLFDPGKIKGFHEIDPDDPKEVEIKIELPPYTIMIYVADGNVFPIPISAG [r5_646_TrROS] | kcal/mol | = | 2.46 |
| WLKFPFPIYNPGFGRPAKFEIELWPDGQLQVTWNGQPILSIPIRIVPPPEVEVDPEYDPNGKEKPKWKYPGS [r1_496_TrROS] | kcal/mol | = | 1.39 |
| SAGGSAGGSGLEILEEREAVFPLHGLVVKREVVVRSPDGVPLVFVEVEAHPELLPLVERLFERSAGGSAGGS [r12_457_TrMRF] | kcal/mol | = | 0.138 |
| SAGSKTISISVPGNWNIEELKAFLSTLPDNVTVYIFYPNKVYVGTVDKKNINLSADSSYDGFKVLVVVPSAG [r5_373_TrMRF] | kcal/mol | = | 2.84 |
